protein stability index reference
Test: protein stability index of a GFP-peptide fusion (yeast GPS) (PSI 1-4); higher = more stable; sorted into four equal gates, so the index is relative within each strain
Conditions: san1∆
Just the number, please, no unit attached.

Example entries begin here.
| Residue string | Measured number |
| --- | --- |
| ERLTNSLMMNGRNNGKK [RPS5] | 2.54 |
| SVGNLEVVKSLYDRPLK [NAS6] | 3.12 |
| DYTLQDIICEDSTLILE [RPB2] | 2.11 |
| IALRNGQSSVKHEDFVE [RPT5] | 3.23 |
| SANERLFGNRPSMMAPL [YML031W/NDC1] | 2.62 |
| NGAVGKREGKTRLLNIV [ISW2] | 3.03 |

For the sequence shown here, AAGALFVSSGFDTSIKL [RPN14] , give the reported protein stability index. 2.18

Ok, now DEVDAIGGRRFSEGTSA [RPT4] 2.48

Ok, now PVKALNECIASTSNALK [SNF12] 2.75

----------
Assay: protein stability index of a GFP-peptide fusion (yeast GPS) (PSI 1-4); higher = more stable; sorted into four equal gates, so the index is relative within each strain
Settings: doa10∆
Mark Not satisfied for protein stability index values under 3, and Satisfied for everything at or above.

| Residue string | Qualitative label |
| --- | --- |
| AGNIKCRNDAVNWLAYT [BRR2] | Satisfied |

Entry QKIRNSEGISEATREVF [ITC1] : is its protein stability index no less than 3? Satisfied

Ok, now FNAGSNPPSYQSSEDVI [RPB7] Not satisfied

Ok, now RRIIQNAQQTFHIDHTK [RPO21] Not satisfied

----------
Assay: protein stability index of a GFP-peptide fusion (yeast GPS) (PSI 1-4); higher = more stable; sorted into four equal gates, so the index is relative within each strain
Settings: pdr5∆
Mark NO for protein stability index values under 3, and YES for everything at or above.

Past entries and their recorded results:
| Residue string | Qualitative label |
| --- | --- |
| PSPPNVIITDGTLLRED [YDL088C/ASM4] | NO |
| KAAFEDLKSKGLIPADA [FAS1] | YES |
| LQEKNSGNLPLNELSAK [RPN13] | YES |
| ELNQDRLGGDDLRIRIK [SNF5] | YES |

Entry REKNSLESGKETALEFL [SMC4] : is its protein stability index no less than 3? YES

----------
Assay: protein stability index of a GFP-peptide fusion (yeast GPS) (PSI 1-4); higher = more stable; sorted into four equal gates, so the index is relative within each strain
Details: pdr5∆
Parameter: protein stability index
Just the number, please, no unit attached.

Example entries begin here.
| Residue string | protein stability index |
| --- | --- |
| RAASAKIESSVESQFSA [RPS8A] | 3.31 |
| KFLKIASLKHDNETKAM [RPN3] | 3.16 |
| NIKTIAETLAEELINAA [RPS5] | 2.87 |

For the sequence shown here, DRKHVAALRTVKSLVDN [RPL9B] , give the reported protein stability index. 2.83

Ok, now MKYLAAYLLLNAAGNTP [RPP2A] 2.05

Ok, now SHTSLVKIGKFIPHGLK [SRB8] 1.73

Ok, now ENEDGNIEERKEKIQHE [BRR2] 3.47

Ok, now DKRIVISIDSWPTTHKY [DIS3] 1.52

Ok, now SRPEYSCTFWSDKESNA [YJL039C/NUP192] 2.5
